Below: a set of entries, each annotated with reported protein stability index.
B1: FBF1 (parent)
chain: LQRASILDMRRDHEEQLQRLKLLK

Variants of: B1
Test: protein stability index of a GFP-peptide fusion (GPS, HEK-293T) (PSI 1-6); higher = more stable;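 note: lentivirally expressed fusions sorted by FACS into six bins by GFP to DsRed ratio, PSI derived from sequencing read proportions per bin multiplied by bin number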
Conditions: c terminus: a fixed tail appended
Would you mind answering with just the numeric figure?

The following variants have reported results that may help.
Suppose we examine the variant `L20Y` ; what protein stability index value has been reported?
3.83

Look up protein stability index for this variant: `A4K`
3.19

Quick check: protein stability index of `R3Y` ?
3.4

Given `D12V` , state its recorded protein stability index.
2.94

Data request, read-out protein stability index, for `L23V`
3.69

For `L17S` , what is its reported protein stability index?
3.77

New cases:
Looking for the measured protein stability index of `E14V` , can you help?
2.69

I am curious: what protein stability index value has been reported for `L1G` ?
3.89

Report protein stability index for `K24R` please.
3.3

Record request: protein stability index value, item `E14D`
3.6

What value of protein stability index has been recorded for this entry: `L7A`
4.22

Would you mind telling me what protein stability index value was observed for `I6K` ?
3.7

Query (variant): `Q18D` ; field requested: protein stability index
3.58
